Test system: LCLC-97TM1
Assay: relative viability (nuclei count vs DMSO), 5 days (fraction); higher = more cells survive
Conditions: first compound 0.01 µM
Please use 1 (yes) for relative viability under 0.3 and 0 (no) for everything else, ties included.

Prompt: Consider the compound Cc1cn(-c2cc(NC(=O)c3ccc(C)c(Nc4nccc(-c5cccnc5)n4)c3)cc(C(F)(F)F)c2)cn1 [Nilotinib] + COc1cccc2cc(-c3nc([C@H]4CC[C@H](C(=O)O)CC4)n4ncnc(N)c34)[nH]c12 [OSI-027] (partner 0.5 µM) . Is its relative viability strictly less than 0.3?
Response: 0 (no)

Prompt: Dear colleague, could you confirm whether relative viability of Cc1cn(-c2cc(NC(=O)c3ccc(C)c(Nc4nccc(-c5cccnc5)n4)c3)cc(C(F)(F)F)c2)cn1 [Nilotinib] + N=C(N)NC(=N)NCCc1ccccc1 [Phenformin] (partner 250 µM) falls below 0.3? Thanks.
Response: 0 (no)

Prompt: Given the entry Cc1cn(-c2cc(NC(=O)c3ccc(C)c(Nc4nccc(-c5cccnc5)n4)c3)cc(C(F)(F)F)c2)cn1 [Nilotinib] + CC(=O)c1c(C)c2cnc(Nc3ccc(N4CCNCC4)cn3)nc2n(C2CCCC2)c1=O [Palbociclib] (partner 0.5 µM) , would its reported relative viability be below 0.3?
Response: 1 (yes)

Prompt: Does this compound meet the criterion relative viability < 0.3? Cc1cn(-c2cc(NC(=O)c3ccc(C)c(Nc4nccc(-c5cccnc5)n4)c3)cc(C(F)(F)F)c2)cn1 [Nilotinib] + Cc1nc(NC(=O)N2CCC[C@H]2C(N)=O)sc1-c1ccnc(C(C)(C)C(F)(F)F)c1 [Alpelisib] (partner 2 µM)
Response: 1 (yes)

Prompt: Is relative viability of Cc1cn(-c2cc(NC(=O)c3ccc(C)c(Nc4nccc(-c5cccnc5)n4)c3)cc(C(F)(F)F)c2)cn1 [Nilotinib] + Cc1cc(Nc2cc(N3CCN(C)CC3)nc(Sc3ccc(NC(=O)C4CC4)cc3)n2)n[nH]1 [Tozasertib] (partner 0.1 µM) strictly below 0.3?
Response: 1 (yes)

----------
Test system: NCI-H1975
Assay: relative viability (nuclei count vs DMSO), 5 days (fraction); higher = more cells survive
Conditions: first compound 2.53 µM
Labelling field: enter YES if recorded relative viability is less than 0.9. Enter NO if it equals or exceeds that cut-off.

Sample answers from the record:
compound	system	assignedClass
Nc1cccc2c1CN(C1CCC(=O)NC1=O)C2=O (stereo unspecified) [Lenalidomide] + CC1(C)CCC(c2ccc(Cl)cc2)=C(CN2CCN(c3ccc(C(=O)NS(=O)(=O)c4ccc(N[C@H](CCN5CCOCC5)CSc5ccccc5)c(S(=O)(=O)C(F)(F)F)c4)cc3)CC2)C1 [Navitoclax] (partner 0.5 µM)	NCI-H1975	NO
Nc1cccc2c1CN(C1CCC(=O)NC1=O)C2=O (stereo unspecified) [Lenalidomide] + Cc1nc(Nc2ncc(C(=O)Nc3c(C)cccc3Cl)s2)cc(N2CCN(CCO)CC2)n1 [Dasatinib] (partner 0.075 µM)	NCI-H1975	YES
Nc1cccc2c1CN(C1CCC(=O)NC1=O)C2=O (stereo unspecified) [Lenalidomide] + CCNC(=O)c1noc(-c2cc(C(C)C)c(O)cc2O)c1-c1ccc(CN2CCOCC2)cc1 [Luminespib] (partner 0.01 µM)	NCI-H1975	YES
Nc1cccc2c1CN(C1CCC(=O)NC1=O)C2=O (stereo unspecified) [Lenalidomide] + N=C(N)NC(=N)NCCc1ccccc1 [Phenformin] (partner 250 µM)	NCI-H1975	YES

Prompt: Hi there! Is relative viability for Nc1cccc2c1CN(C1CCC(=O)NC1=O)C2=O (stereo unspecified) [Lenalidomide] + CS(=O)(=O)CCNCc1ccc(-c2ccc3ncnc(Nc4ccc(OCc5cccc(F)c5)c(Cl)c4)c3c2)o1 [Lapatinib] (partner 2 µM) below 0.9, do you know?
Response: NO
